- target of assay: Voltage-gated potassium channel subunit beta-2 (Rattus norvegicus) (UniProt P62483)
- Sequence (P62483 whole entry, looked up): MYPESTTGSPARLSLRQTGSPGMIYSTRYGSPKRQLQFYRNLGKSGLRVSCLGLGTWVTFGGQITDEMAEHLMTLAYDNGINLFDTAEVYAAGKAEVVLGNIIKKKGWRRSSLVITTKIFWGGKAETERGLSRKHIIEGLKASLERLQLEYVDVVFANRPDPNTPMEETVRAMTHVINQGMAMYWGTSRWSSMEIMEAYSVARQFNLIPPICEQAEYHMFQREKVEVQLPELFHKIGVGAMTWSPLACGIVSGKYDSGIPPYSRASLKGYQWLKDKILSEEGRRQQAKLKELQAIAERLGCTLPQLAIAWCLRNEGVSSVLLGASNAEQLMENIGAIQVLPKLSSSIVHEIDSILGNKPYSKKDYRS
- assay name: KvBeta positive modulators, primary screen, biochemical, NADPH fluorescence (AID 623);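 also: fluorescence intensity change per second fitted from 20 to 320 s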
- condition description: Recombinant KvBeta, NADPH fluorescence decrease slope, 10 min; at 10 µM; stronger effect = lower value
For each record, write down the corresponding NADPH fluorescence slope.
No unit in the answer, only the number.

Enter reported NADPH fluorescence slope observed with Voltage-gated potassium channel subunit beta-2 (Rattus norvegicus) (UniProt P62483) for N#CC1(P(=O)(c2ccccc2)c2ccccc2)CC1 -5.6e-05

Follow-up entry: Cc1cc(C)cc(CC2CC(=O)N(c3cc(C)on3)C2=O)c1 (configuration not stated) -6.6e-05

Follow-up entry: NNC(=O)c1ccncc1 -6.4e-05

Follow-up entry: Cc1c(OCC(F)(F)F)ccnc1CS(=O)c1nc2ccccc2[nH]1 (configuration not stated) -3.7e-05

Follow-up entry: C=CCn1c(N)c(C(=O)OC(C)(C)C)c2nc3ccccc3nc21 0.000211

Follow-up entry: Oc1ccc(Br)cc1CNn1cnnc1 -2.5e-06

Follow-up entry: CC(=O)c1cc(CN2CCCCC2)cc(OC(C)C)c1 -5.3e-05

Follow-up entry: O=C(NCc1ccco1)c1ccc(=O)oc1 -0.000178

Follow-up entry: O=C(NCCN1CCOCC1)c1cc2n(n1)C(C(F)(F)F)CC(c1ccc(F)cc1)N2 (configuration not stated) -9.5e-05

Follow-up entry: COC(=O)c1ccccc1N1C(=O)[C@@H]2C(c3ccc(Br)cc3)=NO[C@@H]2C1=O -7.9e-05

Follow-up entry: CCOC(=O)c1c(C(C#N)C#N)cc(C)nc1C -8e-05

Follow-up entry: C=CCNc1nc(-c2ccc(O)c(C(N)=O)c2)cs1 -0.000295

---

- assay name: inhibitors of E-selectin induction by TNFa, primary screen, imaging, HUVEC, immunofluorescence, MLSMR starter and 10KST1 sets (AID 487);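 also: 100% = median nuclei count of all wells on the same plate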
- condition description: HUVEC TNFalpha-induced E-selectin immunofluorescence imaging, at 2 µM; measured here: cell number, toxicity
For each record, write down the corresponding nuclei count.
Report only the number, with the unit % understood.

Recorded nuclei count for Cc1oc2cc(O)ccc2c(=O)c1-c1cnn(-c2ccccc2)c1 , please? 120

Follow-up entry: COC(=O)c1cccc(Nc2cc(C)nc(-c3ccccc3O)n2)c1 118

Follow-up entry: CCOc1nc(Oc2cccc(C(=O)O)c2)nc(Oc2cccc(C(=O)O)c2)n1 182

Follow-up entry: CCCc1[nH]n(-c2nc3ccccc3s2)c(=O)c1C=NCCN1CCOCC1 123

Follow-up entry: O=S1(=O)C[C@@H](N2CCOCC2)[C@H](N2CCOCC2)C1 133

Follow-up entry: O=C1OC2CCC1(c1ccccc1)C2 (stereo unspecified) 137

Follow-up entry: Oc1c(I)cc(I)c2cccnc12 121

Follow-up entry: Cc1c(C)c2cc(Cl)c(O)c(CN3CCN(C)CC3)c2oc1=O 179

Follow-up entry: CCOC(=O)c1[nH]c2cc3c(cc2c1NC(=O)CN1CCC(C)CC1)OCO3 155

Follow-up entry: CCCOc1cc(CN2CCCCC2)cc(C(C)=O)c1 182

Follow-up entry: c1ccc(N2CCN(c3nc(-c4ccccn4)nc4ccccc34)CC2)cc1 86.2

---

- target of assay: Dual specificity protein phosphatase 6 (Homo sapiens)
- assay name: DUSP6 inhibitors restoring Erk phosphorylation by chemical complementation, primary imaging in DUSP6-transfected HeLa (AID 609);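 as to inhibition: phospho-Erk level distribution per well compared with pooled transfected vehicle control wells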
- condition description: HeLa MKP-3 transfected, phospho-Erk imaging KS statistic; at 10 µM; stronger effect = higher value; cells stimulated with TPA for 15 min
Would you mind labelling by inhibition? At or over 10% is true (1), under is false (0).

Item Cc1nc2c(c(=O)n1CC1CCCO1)c1nc3ccccc3nc1n2Cc1ccc2c(c1)OCO2 (stereo unspecified) with inhibition of 10% or above? false (0)

Follow-up entry: Cc1cccc(N(Cc2cc3ccccc3[nH]c2=O)C(=O)c2ccco2)c1C true (1)

Follow-up entry: COC(=O)c1ccc(Oc2nc3ccccc3n3c(C)nnc23)cc1 true (1)

Follow-up entry: CC1(C)Cc2c(C#N)c(NCCc3ccccc3)nc(-c3ccco3)c2CO1 true (1)

Follow-up entry: CCC(c1c(C)n(C)n(-c2ccccc2)c1=O)c1c(C)n(C)n(-c2ccccc2)c1=O false (0)

Follow-up entry: CCCc1nnc(NC(=O)c2c(O)c3c([nH]c2=O)CCCC3)s1 true (1)

Follow-up entry: CCOc1cccc(-c2nnc3sc(C4CCCCC4)nn23)c1 true (1)

Follow-up entry: CC(C)Cc1ccc(C(C)C(=O)O)cc1 (stereo unspecified) false (0)

Follow-up entry: COC(=O)c1[nH]c2cc(OC)ccc2c1NC(=O)CN1CCC(C(N)=O)CC1 false (0)

Follow-up entry: c1ccc(CN2CCN(c3nc(-c4ccccn4)nc4ccccc34)CC2)cc1 true (1)

Follow-up entry: CC(Cc1ccc(O)c(O)c1)C(C)Cc1ccc(O)c(O)c1 (stereo unspecified) true (1)

---

- assay name: DUSP6 inhibitors restoring Erk phosphorylation by chemical complementation, primary imaging in DUSP6-transfected HeLa (AID 609)
- condition description: HeLa MKP-3 transfected, phospho-Erk imaging KS statistic; measured here: cell density z-score; at 10 µM; cells stimulated with TPA for 15 min
assay metric: z-score

Recorded z-score for NC(N)=NS(=O)(=O)c1ccc(N)cc1 , please? 0.695

Follow-up entry: COc1cc(C)nc(N(C)S(=O)(=O)c2ccccc2Cl)n1 1.16

Follow-up entry: COc1ccc(CCNC2CC(C)N(C)CC2C)cc1OC (configuration not stated) 0.099

Follow-up entry: Fc1ccc(-c2cnc[nH]2)cc1 -1.11

Follow-up entry: COc1cccc(OCCN2CCN(c3ncnc4c3cnn4-c3ccccc3)CC2)c1 0.225

Follow-up entry: O=C1NC(c2cccs2)Nc2ccccc21 (configuration not stated) -1.25

Follow-up entry: CCOc1cccc(-c2nn3c(-c4ccccn4)nnc3s2)c1 0.204

Follow-up entry: CCCc1[nH]nc2c1C(c1c(C)nn(-c3ccccc3)c1Cl)C(C#N)=C(N)O2 (configuration not stated) 1.26

Follow-up entry: O=C(Cc1cscn1)c1ccc(O)cc1O 1.34

Follow-up entry: CCN(CC)C(=O)CSC1=C(C#N)C(c2ccco2)C(C(=O)OCCOC)=C(C)N1 (configuration not stated) 0.81

Follow-up entry: COc1cc([C@@H]2c3cc4c(cc3[C@H](O)[C@H]3COC(=O)[C@H]23)OCO4)cc(OC)c1OC 0.542

Follow-up entry: CC1=C(/C=C/C(C)=C/C=C/C(C)=C/C(=O)O)C(C)(C)CCC1 -0.898

Follow-up entry: Cc1cccc(Nc2ncnc3ccccc23)c1 -0.619

Follow-up entry: COc1cc(C)nc(Oc2ccc(=O)n(C)n2)n1 0.099

Follow-up entry: Cn1c2c(c(=O)n(C)c1=O)C(NC(=O)C(C)(C)C)(C(F)(F)F)C(=O)N2 (configuration not stated) -0.683

Follow-up entry: Cc1cc(C)n(-c2nnc(C)n2/N=C/c2ccccc2F)n1 0.554

Follow-up entry: CCC(=O)c1ccc(O)cc1 -0.298

Follow-up entry: Cc1cnc(NC(=O)C2=C(O)c3ccccc3S(=O)(=O)N2C)s1 -0.158

Follow-up entry: Cn1c2c(c(=O)n(C)c1=O)C(NC(=O)c1cccs1)(C(F)(F)F)C(=O)N2 (configuration not stated) 1.78

Follow-up entry: CN1CCN(c2ncnc3c2[nH]c2ccc(F)cc23)CC1 -0.484

Follow-up entry: CCn1cc(C(=O)NCCCN(C)C)c(=O)c2cc(F)c(N3CCN(C)CC3)cc21 -0.583

Follow-up entry: CCCCCCn1cc(C(=O)O)c(=O)c2ccccc21 -1.56

Follow-up entry: C(=C\c1ccccc1)/CN1CCN(C(c2ccccc2)c2ccccc2)CC1 0.835

Follow-up entry: CCn1cc(C(=O)NCc2ccco2)c(=O)c2cc(F)c(N3CCN(C(=O)c4ccco4)CC3)cc21 2.14

Follow-up entry: CC(C)Cc1nc(N2CCCCC2)c(C#N)c2c1CCC2 -1.47

Follow-up entry: Cc1oc2nc(SCCCC(=O)NCCCO)nc(N)c2c1C 0.495

Follow-up entry: COc1cccc(Cn2c(NCC(C)C)nc3c2c(=O)n(C)c(=O)n3C)c1 -0.509

Follow-up entry: COC(=O)c1sc(NC(=O)C(C)C)c(C(=O)OC)c1C -0.757

Follow-up entry: CC(=O)Nc1ccc(S(=O)(=O)Nc2nc3n(n2)C(c2ccccc2)CC(=O)N3)cc1 (configuration not stated) -0.235

Follow-up entry: CC1(C)Cc2c(C#N)c(SCCC#N)nc(N3CCOCC3)c2CS1 0.7

Follow-up entry: COc1cccc(-c2nc(NCc3ccco3)c3ccccc3n2)c1O 0.234

Follow-up entry: CCOc1ccc(C2/C(=C(/O)c3ccc(OC)cc3)C(=O)C(=O)N2c2cc(C)on2)cc1OC (configuration not stated) 0.762

Follow-up entry: CC1(C)Cc2c(sc3nc4n(c(=N)c23)CCCCC4)CO1 -0.678

Follow-up entry: CN(C)CCCN1C(=O)C(O)=C(C(=O)c2cc3ccccc3o2)C1c1ccccn1 (configuration not stated) 2.7

Follow-up entry: O=C(OCCCN1CCCC1)C1(c2ccccc2)CCCC1 -0.268

Follow-up entry: C=CCn1c(N)c(C(=O)OC(C)(C)C)c2nc3ccccc3nc21 1.71

Follow-up entry: Cn1nnnc1-c1cc(Br)ccc1NC(=O)c1ccccc1 -0.94

Follow-up entry: CN(C)C/C(Cl)=C(\Cl)c1ccccc1 -1.42

Follow-up entry: CCC(NC(=O)Nc1ccc(O)cc1)(C(F)(F)F)C(F)(F)F -0.865

Follow-up entry: Cc1ccc(SCc2c(C#N)c3ccccc3n2C)cc1 -1.74

Follow-up entry: O=C(CCN1CCCCC1)Nc1cccc(Cl)c1 -1.72

Follow-up entry: CN(C)c1nc(N(C)C)nc(N(C)C)n1 1.31

Follow-up entry: O=C(O)CC1Sc2nc3ccccc3n2C1=O (configuration not stated) -0.312

Follow-up entry: CCOC(=O)NC(O)C(=O)c1cccs1 (configuration not stated) 1.4

Follow-up entry: CC(C)(C)n1cnc2cc(NS(=O)(=O)c3ccc(Br)cc3)ccc21 0.246

Follow-up entry: O=C(Nc1cccnc1)c1cccnc1 -0.532

Follow-up entry: Cn1cc(NC(=O)c2cc(NC(=O)c3cc(NC=O)cn3C)cn2C)cc1C(=O)NCCC(=N)N -1.3
